Assign GI50 to each entry below.
test system: HT-29; assay: NCI tumour cell line growth inhibition, 48 h
Activity calls are given as the source filed them. No stated cut-off is given here; in the data, active = GI50 up to about 1.1 µM and inactive = higher.

Example results:
compound: CC1=NC2=Nc3nc(C)cc[n+]3CN2C=C1
assay-system: HT-29
GI50: 31.8 µM (inactive)

compound: CC1(C)C(=O)C(C)(C)C1=NNC(N)=S
assay-system: HT-29
GI50: > 100 µM (inactive)

compound: COC1=N[C@H](C(C)C)C(OC)=N[C@H]1Cc1ccc(C[C@@H]2N=C(OC)[C@@H](C(C)C)N=C2OC)s1
assay-system: HT-29
GI50: 26.2 µM (inactive)

compound: O=C(O)Cc1ccc(Oc2nc3ccccc3nc2C(=O)O)cc1
assay-system: HT-29
GI50: > 100 µM (inactive)

compound: COc1ccc2nc3cccc([N+](=O)[O-])c3c(NCCN(C)C)c2c1
assay-system: HT-29
GI50: 0.0573 µM (active)

For every item below, please supply its GI50.
1. COc1cc(C)c2c(c1C)OC(=O)c1c(C)c(Cl)c(O)c(C=O)c1O2
2. CCCCC[C@@H]1OCO[C@@]2(C)/C=C(C)\C=C/C(=O)O[C@H]([C@@H](C)[C@@H](O)[C@H](C)[C@@]3(O)C[C@@H](O[C@H]4C[C@@H](O)[C@H](O)[C@@H](C)O4)[C@H](C)[C@@H](C)O3)[C@@H](OC)/C=C\C=C(\C)C[C@@H]1[C@@H]2O (stereo in doubt)
3. [N-]=[N+]=NCC1OCC(O)C(OCc2ccccc2)C1OCc1ccccc1 (centres undefined)

OUTPUT:
20.4 µM (inactive)
< 0.005 µM (active)
36.3 µM (inactive)

Lab note: NC1(C(=O)O)CCC(C(=O)O)CC1 (centres undefined) gave GI50 of > 100 µM (inactive)

* * *

tested on: CCRF-CEM; test: NCI tumour cell line growth inhibition, 48 h
The source made the active and inactive calls. No stated cut-off is given here; in the data, active = GI50 up to about 1.1 µM and inactive = higher.
I would appreciate it if you answered using one of these outcomes: active, inactive

compound: Cc1ccc2nc(/C(=C/c3ccc(/C=C(\NC(=O)c4ccccc4)c4nc5ccc(C)cc5[nH]4)c(C)c3)NC(=O)c3ccccc3)[nH]c2c1
category-label: inactive

INPUT: Write down the call the test reported for this compound. Item: COC(=O)CCC(NC(=O)C(C)NC(=O)COC1C(O)C(OC(=O)CCNc2c3ccccc3nc3cccc([N+](=O)[O-])c23)OC(OCc2ccccc2)C1NC(C)=O)C(N)=O (configuration not stated)
OUTPUT: inactive

INPUT: Write down the call the test reported for this compound. Item: O=c1c(Cc2ccc(Cc3c(O)oc4ccccc4c3=O)cc2)c(O)oc2ccccc12
OUTPUT: inactive

INPUT: Write down the call the test reported for this compound. Item: O=[N+]([O-])c1ccc(O)c(/C=N/c2nc(-c3ccccc3)cs2)c1
OUTPUT: inactive

INPUT: Write down the call the test reported for this compound. Item: CN1N=C(c2ccncc2)OC1c1ccccc1F (configuration not stated)
OUTPUT: inactive

INPUT: Write down the call the test reported for this compound. Item: O=C(Cc1ccc(Cl)cc1)Nc1ccc2oc(-c3ccccc3)nc2c1
OUTPUT: inactive

INPUT: Write down the call the test reported for this compound. Item: Oc1ccc2ccccc2c1-c1c(Nc2ccccc2)ccc2ccccc12
OUTPUT: inactive

INPUT: Write down the call the test reported for this compound. Item: Cc1cccc2c1C/C(=C1\CCc3c(C)cccc31)C2=O
OUTPUT: inactive

INPUT: Write down the call the test reported for this compound. Item: S=C(c1c[nH]c2ccccc12)N1CCCCC1
OUTPUT: inactive

INPUT: Write down the call the test reported for this compound. Item: C=CCCCC1(C)CCCCNC1=O (configuration not stated)
OUTPUT: inactive

INPUT: Write down the call the test reported for this compound. Item: NC(=O)CCC(N=C(N)c1csc(C2OC(CO)C(O)C2O)n1)C(=O)O (configuration not stated)
OUTPUT: inactive

INPUT: Write down the call the test reported for this compound. Item: Sc1nnc(-c2ccccc2Nc2ccccc2-c2nnc(S)n2-c2ccccc2)n1-c1ccccc1
OUTPUT: inactive

INPUT: Write down the call the test reported for this compound. Item: CC1CCC2C(C)C(=O)OC3OC4(C)CCC1C32OO4 (configuration not stated)
OUTPUT: inactive

INPUT: Write down the call the test reported for this compound. Item: CC(C)(C)OC(=O)N[C@@H](Cc1ccccc1)C(=O)N1CC[C@@H](C(=O)N2[C@H]3CC4CC[C@@]3(CS2(=O)=O)C4(C)C)N1
OUTPUT: inactive

INPUT: Write down the call the test reported for this compound. Item: NNC(=O)N/N=C1/C(=O)N(c2ccc(Cl)c(Cl)c2)C(=O)C(=O)C1c1nc2ccccc2o1 (configuration not stated)
OUTPUT: inactive

* * *

tested on: Malme-3M; experiment: NCI tumour cell line growth inhibition, 48 h
Calls of active or inactive are those of the source. No stated cut-off is given here; in the data, active = GI50 up to about 1.1 µM and inactive = higher.
outcome-measure: GI50

Example results:
compound: O=C(/C=C/c1ccccc1Cl)NC1C=Nc2ccc([N+](=O)[O-])cc2NC1 (stereo unspecified)
GI50: > 100 µM (inactive)
--
compound: O=P(O)(O)C=C=C1CCCCC1
GI50: > 100 µM (inactive)
--
compound: N#C[BH2-][n+]1ccc(C(=O)NNC(c2ccccc2)C(F)(F)F)cc1 (stereo unspecified)
GI50: > 100 µM (inactive)
--
compound: Cn1c(=O)c2c(ncn2CCNC(CO)C(O)c2ccc([N+](=O)[O-])cc2)n(C)c1=O (stereo unspecified)
GI50: > 100 µM (inactive)
--
compound: Cc1cc(C)c(C#N)c(SC(=S)NC(=O)c2ccccc2)n1
GI50: > 100 µM (inactive)
--
compound: CC(Oc1ccc(Oc2cnc3ccc(Cl)cc3n2)cc1)C(=O)O (stereo unspecified)
GI50: > 45 µM (inactive)
--
compound: CC1(C)OC(C(C)(C)O)C(C(C)(C)O)O1 (stereo unspecified)
GI50: > 100 µM (inactive)
--
compound: O=[N+]([O-])c1ccc2c(Nc3ccccc3-c3ccccc3Nc3c4ccccc4nc4cc([N+](=O)[O-])ccc34)c3ccccc3nc2c1
GI50: 8.63 µM (inactive)
--
compound: CCOC(=O)N1C/C(=C\c2ccc(N(C)C)cc2)C(=O)/C(=C/c2ccc(N(C)C)cc2)C1
GI50: > 100 µM (inactive)
--
compound: O=C(O)c1c(O)c2cc(Br)ccc2oc1=O
GI50: > 100 µM (inactive)

Consider the record given below.
Lab note: COC(=O)CCC(NC(=O)C(C)NC(=O)COC1C(O)C(OC(=O)CCNc2c3ccccc3nc3cccc([N+](=O)[O-])c23)OC(OCc2ccccc2)C1NC(C)=O)C(N)=O (stereo unspecified) gave GI50 of 2.22 µM (inactive)

* * *

tested on: IGROV-1; experiment: NCI tumour cell line growth inhibition, 48 h
The source made the active and inactive calls. Cut-off read from the data, not from the text of the source: active = GI50 up to about 1.1 µM and inactive = higher.
outcome-measure: GI50

Example results:
molecule: NCC(=O)OCN1C(=O)C2C3C=CC(C2C1=O)C1C2C(=O)N(COC(=O)CN)C(=O)C2C31 (stereo not drawn)
reported: 40.2 µM (inactive)

molecule: CC1(C)C2CCC(=O)C1C(OCc1ccccc1)C2 (stereo not drawn)
reported: > 100 µM (inactive)

Consider the record given below.
Lab note: COc1ccccc1[S+]([O-])Nc1ccccc1 (stereo not drawn) gave GI50 of 37.2 µM (inactive)

* * *

system: MDA-MB-435; assay: NCI tumour cell line growth inhibition, 48 h
The source made the active and inactive calls. Cut-off read from the data, not from the text of the source: active = GI50 up to about 1.1 µM and inactive = higher.
Assign GI50 to each entry below.

molecule: Cc1cnc2c(c1)C(=O)N(c1ccc([N+](=O)[O-])cc1)S2(=O)=O
outcome-measure: GI50
reported: 70.5 µM (inactive)
//
molecule: C/C(=C1/N=C(c2ccccc2)OC1=O)c1ccc(C)cc1
outcome-measure: GI50
reported: > 100 µM (inactive)
//
molecule: CC1=CCC[C@H]2[C@](C)(CC3=CC(=O)C(SCC(C)C)=CC3=O)[C@@H](C)CC[C@]12C
outcome-measure: GI50
reported: 15.7 µM (inactive)

For every item below, please supply its GI50.
1. COC1(CC[C@@H](C)COC2OC(CO)C(O)C(O)C2O)OC2C[C@H]3[C@@H]4CC[C@H]5C[C@@H](OC6OC(CO)C(OC7OC(CO)C(O)C(O)C7O)C(O)C6OC6OC(C)C(O)C(O)C6O)[C@H](O)C[C@]5(C)[C@H]4CC[C@]3(C)C2[C@@H]1C (stereo partly drawn)
2. O=C1c2scc(-c3ccc(F)cc3)c2-n2cccc21
3. COC([C@@H](OC(=O)c1ccccc1)[C@H](OC(=O)c1ccccc1)C(O)COC(=O)c1ccccc1)n1cc(C)c(=O)[nH]c1=O (stereo partly drawn)
4. COC(=O)c1c(O)ccc2c1c1c(n2Cc2ccc(Cl)cc2Cl)C(=O)c2ccccc2C1
5. CC1CCC2(C(=O)O)CCC3(C)C(=CCC4C5(C)CCC(O)C(C)(C)C5CCC43C)C2C1C (stereo not drawn)

OUTPUT:
1. 1.84 µM (inactive)
2. 11.1 µM (inactive)
3. 20 µM (inactive)
4. 45.1 µM (inactive)
5. 30.1 µM (inactive)

For every item below, please supply its GI50.
1. COc1ccc2nccc(SCC(=O)O)c2c1
2. Nc1nc(Cl)c(CO)c(NCC2(CO)CCC2)n1
3. Clc1cc(Cl)cc(C2ON=C(c3ccccc3)N2C23CC4CC(CC(C4)C2)C3)c1 (stereo not drawn)
4. COC1=N[C@H](C(C)C)C(OC)=N[C@H]1Cc1ccc(C[C@@H]2N=C(OC)[C@@H](C(C)C)N=C2OC)s1
5. Cc1oc2c(c1C(=O)c1ccccc1)C(=O)c1ccccc1C2=O
6. COc1ccccc1/C=C1\SC(=S)N(/C=C2\C(=O)Oc3ccccc3C2=O)C1=O
7. C[n+]1cn(C2=C([N-]S(=O)(=O)c3ccccc3)C(=O)c3ccccc3C2=O)c2ccccc21
8. COc1ccc(/C=N/CCC/N=C/c2ccc(OC)cc2O)c(O)c1

OUTPUT:
1. > 100 µM (inactive)
2. > 100 µM (inactive)
3. > 10 µM (inactive)
4. 33.1 µM (inactive)
5. 1.58 µM (inactive)
6. 25.6 µM (inactive)
7. 2.79 µM (inactive)
8. 46.1 µM (inactive)

For every item below, please supply its GI50.
1. CN(C)CCNC(=O)c1cccc2c(NC(CCCNC(=N)N)C(=O)O)c3ccccc3nc12 (stereo not drawn)
2. CC(=O)OC(=C(C#N)C#N)c1nccnc1C(C)=O

OUTPUT:
["10.1 µM (inactive)", "> 20 µM (inactive)"]
